Target: AMP-activated protein kinase, AMPK
Assay: Inhibition of AMPK
Type: protein-complex assay
measurement.label: IC50

{"columns": ["molecule", "study.target", "IC50"],
 "data": [
  ["COC[C@@H](C(N)=O)N(C)Cc1cc2c(Nc3cccc(Cl)c3F)ncnc2cc1OC", "AMP-activated protein kinase, AMPK", "> 10 µM"]
]}

The measured IC50 associated with COc1cc2ncnc(Nc3ccc(F)c(Cl)c3)c2cc1CN1CCC[C@H]1C(N)=O reads > 10 µM

----------
Assay: Volume of distribution in rat
Type: ADME, organism-based
Conditions: in vivo, read-out: Vdss
measurement.label: Vd (L/kg)

Example entries begin here.
{"columns": ["query.smiles", "Vd [L/kg]"],
 "data": [
  ["COc1cc2ncnc(Nc3cccc(Cl)c3F)c2cc1CN(C)C1(C(N)=O)CN(C)C1", 9.4],
  ["COc1cc2ncnc(Nc3cccc(Cl)c3F)c2cc1CN(C)C1(C(N)=O)CCN(C(C)C)CC1", 4.9],
  ["COc1cc2ncnc(Nc3cccc(Cl)c3F)c2cc1CN(C)C1(C(N)=O)CCN(C)CC1", 7.5]
]}

I = COc1cc2ncnc(Nc3cccc(Cl)c3F)c2cc1CN(C)C1(C(N)=O)CN(C(C)C)C1
II = COCCN1CC(C(N)=O)(N(C)Cc2cc3c(Nc4cccc(Cl)c4F)ncnc3cc2OC)C1
Lower value of Vd belongs to which: I or II ? Answer by quoting the chosen item's label. II

The origin of these recorded values is ChEMBL document CHEMBL1147701.
